- SYSTEM: recombinant P. vivax NMT (PvNMT) (Plasmodium vivax)
- Sequence (A5K1A2 1-410): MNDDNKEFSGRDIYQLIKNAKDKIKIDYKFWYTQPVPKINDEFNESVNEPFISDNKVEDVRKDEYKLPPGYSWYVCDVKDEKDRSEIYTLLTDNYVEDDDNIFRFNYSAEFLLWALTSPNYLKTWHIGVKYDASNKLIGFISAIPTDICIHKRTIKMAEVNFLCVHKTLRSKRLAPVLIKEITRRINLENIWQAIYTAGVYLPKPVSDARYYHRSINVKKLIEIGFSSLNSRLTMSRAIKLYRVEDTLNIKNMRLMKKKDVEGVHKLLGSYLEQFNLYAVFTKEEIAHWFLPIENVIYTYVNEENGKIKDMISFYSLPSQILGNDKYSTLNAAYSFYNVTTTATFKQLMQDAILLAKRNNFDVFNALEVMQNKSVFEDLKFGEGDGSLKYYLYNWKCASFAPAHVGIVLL
- ASSAY_PROCEDURE: biochemical
- Assay type: biochemical
- SETUP_CONDITIONS: lipophilic efficiency, LipE = –log(Ki) – clog P; based on PvNMT data
ATTRIBUTE_MEASURED: LipE

Would you please look over these solved cases?
CCSc1c(C(=O)NCCO)cnc2ccc(OCc3ccccc3)cc12 [Compound 18]	2.36
CCOC(=O)c1cnc2ccc(OCc3ccccc3)cc2c1S(=O)(=O)CC [Compound 10]	2.34
CCOC(=O)c1cnc2ccc(OCc3ccccc3)cc2c1SCC [Compound 7]	1.42
CCSc1c(C(=O)N(CC)CC)cnc2ccc(OCc3ccccc3)cc12 [Compound 14]	1.80
CCSc1c(C(=O)N2CCCC2)cnc2ccc(OCc3ccccc3)cc12 [Compound 15]	1.74

a: CCOC(=O)c1cnc2ccc(OCc3ccccc3)cc2c1SCCC#N [Compound 4]
b: CCOCc1cnc2ccc(OCc3ccccc3)cc2c1SCC [Compound 12]
c: CCCSc1c(C(=O)OCC)cnc2ccc(OCc3ccccc3)cc12 [Compound 5]
d: CCOC(=O)c1cnc2ccc(OCc3ccc(NCCN)nc3)cc2c1SCC [Compound 24]
Ask: Ascending by LipE, please: list the compounds accordingly. Returns: the labels arranged in the requested order.
Result: c, b, a, d

* * *

- SYSTEM: recombinant P. falciparum NMT (PfNMT) (Plasmodium falciparum, UniProt Q9U419)
- Sequence (Q9U419 1-410): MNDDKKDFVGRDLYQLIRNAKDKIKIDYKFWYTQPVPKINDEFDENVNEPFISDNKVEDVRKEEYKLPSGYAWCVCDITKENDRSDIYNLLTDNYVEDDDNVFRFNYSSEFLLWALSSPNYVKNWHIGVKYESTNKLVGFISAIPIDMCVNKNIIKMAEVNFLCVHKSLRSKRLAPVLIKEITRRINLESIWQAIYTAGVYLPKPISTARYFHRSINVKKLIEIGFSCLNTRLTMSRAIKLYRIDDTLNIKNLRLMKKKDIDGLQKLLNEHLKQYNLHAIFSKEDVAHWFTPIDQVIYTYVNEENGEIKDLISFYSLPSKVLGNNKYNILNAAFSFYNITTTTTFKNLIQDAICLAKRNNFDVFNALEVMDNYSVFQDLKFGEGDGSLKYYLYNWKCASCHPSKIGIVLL
- ASSAY_PROCEDURE: fluorogenic 96-well plate enzymatic assay for PfNMT activity
- Type: biochemical
- SETUP_CONDITIONS: recombinant enzyme; mean ± SD from duplicates; Ki app from IC50 by Cheng-Prusoff; read-out: Ki app PfNMT
Catalogue of Ki readings, one per entry.

CCOC(=O)c1cnc2ccc(OCc3ccccc3)cc2c1S(=O)(=O)CC [Compound 10]	> 10 µM
CCSc1c(CO)cnc2ccc(OCc3ccccc3)cc12 [Compound 11]	> 10 µM

Now, please, on to the next compound.
Ask: Give recombinant P. falciparum NMT (PfNMT) (Plasmodium falciparum, UniProt Q9U419) Ki for the following compound: CCOC(=O)c1cnc2ccc(OCc3ccccc3)cc2c1SCCC#N [Compound 4]
Result: > 10 µM
